Format: in vivo, human
Conditions: human, plasma, po, 60 mg, Tmax, single oral 60 mg, severe renal impairment; median (minimum–maximum)
readoutType: Tmax (h)

>>> df
                             smilesnotation  readouttype  datavalue
0  C[C@@H]1CCC[C@H](n2cnc(-c3cc(Cl)ccc3-n3cc(Cl)nn3)cc2=O)c2cc(ccn2)-c2c(cnn2C(F)F)NC1=O         Tmax          5

----------
Test: Milvexian plasma protein binding by LC-MS/MS
Assay type: in vitro ADME, human
Conditions: human, plasma, %fu (fraction of unbound drug), severe renal impairment; adjusted geometric mean (%CV)
readoutType: fraction unbound

>>> df
                             smilesnotation  datavalue
0  C[C@@H]1CCC[C@H](n2cnc(-c3cc(Cl)ccc3-n3cc(Cl)nn3)cc2=O)c2cc(ccn2)-c2c(cnn2C(F)F)NC1=O      0.084
